Examples of binders with documented pKd follow.
Target: T1, Dimeric fibrinogen-like domain of monkey (Macca fascicularis) Ang-2 conjugated to human IgG1 (monkey (Macca fascicularis))
T1 construct: also called Dimeric Monkey Ang-2FD; Monkey Ang-2FD-hFc
T1 sequence (chain, as listed by the source limits assumed): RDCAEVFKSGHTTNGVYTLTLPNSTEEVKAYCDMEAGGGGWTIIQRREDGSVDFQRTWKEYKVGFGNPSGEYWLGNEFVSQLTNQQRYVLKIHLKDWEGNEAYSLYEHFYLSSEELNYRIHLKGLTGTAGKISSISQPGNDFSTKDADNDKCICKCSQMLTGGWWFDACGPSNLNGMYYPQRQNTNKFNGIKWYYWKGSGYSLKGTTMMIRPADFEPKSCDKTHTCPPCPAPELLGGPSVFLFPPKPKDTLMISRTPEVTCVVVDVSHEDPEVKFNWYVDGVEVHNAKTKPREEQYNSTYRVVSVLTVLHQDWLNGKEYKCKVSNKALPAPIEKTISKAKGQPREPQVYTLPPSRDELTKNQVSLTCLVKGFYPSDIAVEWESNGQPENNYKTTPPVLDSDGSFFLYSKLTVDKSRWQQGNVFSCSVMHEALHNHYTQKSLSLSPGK
Assay: SPR, antibody captured, room temp
Description: Antibody was captured on a goat anti-mouse IgG polyclonal antibody surface, a goat anti-human κ polyclonal antibody (Southern Biotech, Birmingham, Ala.) surface or a goat anti-human IgG polyclonal antibody (Jackson Immuno Research Lab, West Grove, Pa.) surface created through direct amine coupling to a BIACORE™ CM5 sensor chip to form a captured antibody surface. […] Antigen-antibody binding and dissociation were monitored in real time at room temperature. […]
For clarity, pKd is expressed as the negative log10 of concentration in mol/L.

Consider the reported pKd for these binders:
- H2M742N (antibody, V domains shown) VH: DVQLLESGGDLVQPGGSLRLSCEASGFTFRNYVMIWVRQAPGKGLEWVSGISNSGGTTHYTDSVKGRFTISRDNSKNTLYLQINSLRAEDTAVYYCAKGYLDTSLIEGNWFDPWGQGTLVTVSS VL: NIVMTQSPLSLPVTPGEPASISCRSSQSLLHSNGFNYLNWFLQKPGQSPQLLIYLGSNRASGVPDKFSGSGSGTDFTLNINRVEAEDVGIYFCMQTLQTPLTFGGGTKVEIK: 8.21
- H1M732N (antibody, V domains shown) VH: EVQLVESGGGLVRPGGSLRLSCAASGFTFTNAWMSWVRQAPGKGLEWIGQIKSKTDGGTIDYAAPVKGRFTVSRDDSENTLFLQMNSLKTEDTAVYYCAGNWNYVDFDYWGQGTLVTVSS VL: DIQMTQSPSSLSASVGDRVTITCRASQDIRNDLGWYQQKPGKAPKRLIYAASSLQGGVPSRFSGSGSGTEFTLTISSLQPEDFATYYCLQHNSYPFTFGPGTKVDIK: 8.13
- H1M728N (antibody, V domains shown) VH: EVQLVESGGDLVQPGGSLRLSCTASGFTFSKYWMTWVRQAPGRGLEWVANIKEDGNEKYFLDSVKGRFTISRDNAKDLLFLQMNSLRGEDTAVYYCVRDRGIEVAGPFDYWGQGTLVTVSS VL: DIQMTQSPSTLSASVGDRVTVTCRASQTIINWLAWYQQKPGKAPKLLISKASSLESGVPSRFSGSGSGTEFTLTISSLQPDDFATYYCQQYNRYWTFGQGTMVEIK: 8.80
- H2M749N (antibody, V domains shown, Hybridoma-derived chimeric antibody, mouse constant domains; also called H1M749N; H1M749) VH: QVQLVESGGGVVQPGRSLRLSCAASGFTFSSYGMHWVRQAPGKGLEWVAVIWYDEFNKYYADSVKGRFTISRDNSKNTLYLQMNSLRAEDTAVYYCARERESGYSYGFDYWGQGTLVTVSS VL: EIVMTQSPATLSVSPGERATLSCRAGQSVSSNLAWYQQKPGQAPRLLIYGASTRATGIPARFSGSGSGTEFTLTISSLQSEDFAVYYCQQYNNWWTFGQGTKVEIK: 8.82

Next item in the queue.
Query :: Determine its reported pKd: H2M744N (antibody, V domains shown) VH: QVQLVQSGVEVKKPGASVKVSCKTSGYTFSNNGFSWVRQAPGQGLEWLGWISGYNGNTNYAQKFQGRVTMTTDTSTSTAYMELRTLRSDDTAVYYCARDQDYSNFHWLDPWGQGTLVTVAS VL: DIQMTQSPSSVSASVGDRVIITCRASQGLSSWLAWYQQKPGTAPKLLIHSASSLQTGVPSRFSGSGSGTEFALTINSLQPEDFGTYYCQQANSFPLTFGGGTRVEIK
Result :: 9.30
